Assay: Stability in human liver microsomes
Type: in vitro ADME
Details: read-out: T½
// half-life lookup, one value per entry
I only need the number, in min, no unit after it.

{"compound": "CCNC1=Nc2ccc(Cl)cc2C(C)(c2ccccc2)O1 (centres unmarked)", "endpointUnit": "min", "half-life": 22}

Now, please, on to the next compound.
*Q* // lookup half-life for [2H]C([2H])([2H])C([2H])([2H])NC1=Nc2ccc(Cl)cc2C(C)(c2ccccc2)O1 (racemic)
*A* 41

* * *

Experiment: Stability in rat liver microsomes
Format: in vitro ADME
Conditions: read-out: T½
// half-life lookup, one value per entry
I only need the number, in min, no unit after it.

{"compound": "[2H]C([2H])([2H])C([2H])([2H])NC1=Nc2ccc(Cl)cc2C(C)(c2ccccc2)O1 (racemic)", "half-life (min)": 14}

Now, please, on to the next compound.
*Q* // lookup half-life for CCNC1=Nc2ccc(Cl)cc2C(C)(c2ccccc2)O1 (centres unmarked)
*A* 8

* * *

// microsomal CLint lookup, one value per entry
Test: Stability in human liver microsomes
Format: in vitro ADME
I only need the number, in µL/min/mg, no unit after it.

*Q* // lookup microsomal CLint for CCNC1=Nc2ccc(Cl)cc2C(C)(c2ccccc2)O1 (centres unmarked)
*A* 309

*Q* // lookup microsomal CLint for [2H]C([2H])([2H])C([2H])([2H])NC1=Nc2ccc(Cl)cc2C(C)(c2ccccc2)O1 (racemic)
*A* 170

* * *

Test: Stability in mouse liver microsomes
Type: in vitro ADME
readoutType: microsomal CLint (µL/min/mg)
I only need the number, in µL/min/mg, no unit after it.

{"compound": "CCNC1=Nc2ccc(Cl)cc2C(C)(c2ccccc2)O1 (centres unmarked) [Etifoxine]", "microsomal CLint [µL/min/mg]": 657}

Now, please, on to the next compound.
*Q* // lookup microsomal CLint for [2H]C([2H])([2H])C([2H])([2H])NC1=Nc2ccc(Cl)cc2C(C)(c2ccccc2)O1 (racemic) [Deuterated Etifoxine]
*A* 464

* * *

Experiment: Stability in mouse liver microsomes
Type: in vitro ADME
Conditions: read-out: T½
readoutType: half-life (min)
I only need the number, in min, no unit after it.

{"molecule": "[2H]C([2H])([2H])C([2H])([2H])NC1=Nc2ccc(Cl)cc2C(C)(c2ccccc2)O1 (racemic)", "half-life / min": 15}

Now, please, on to the next molecule.
*Q* // lookup half-life for CCNC1=Nc2ccc(Cl)cc2C(C)(c2ccccc2)O1 (centres unmarked)
*A* 11

* * *

Assay: Phase 1 multiple-ascending dose study, plasma pharmacokinetics in healthy subjects
Format: in vivo, human
Conditions: both sexes, human, plasma; single and multiple oral doses of 100-300 mg q12h, post-dose; read-out: Median Tmax
readoutType: Tmax

*Q* // lookup Tmax for [2H]C([2H])([2H])C([2H])([2H])NC1=Nc2ccc(Cl)cc2C(C)(c2ccccc2)O1 (racemic)
*A* 2 to 3.52 h
